Each recorded value in this set is attributed to ChEMBL document CHEMBL1125200.

target: Estrogen receptor (Rattus norvegicus) (UniProt P06211+Q62986); assay: Relative binding affinity (RBA) for estrogen receptor of rat uterine cytosol at OC relative to Estradiol; type: protein assay
READOUT: relative binding affinity (RBA)

C[C@]12CC[C@@H]3c4ccc(O)cc4CC[C@H]3[C@@H]1CC[C@@]2(O)/C=C/I: 202

1. C[C@]12CC[C@@H]3c4ccc(O)cc4CC[C@H]3[C@@H]1CC[C@@]2(O)/C=C/Br
2. C[C@]12CC[C@@H]3c4ccc(O)cc4CC[C@H]3[C@@H]1CC[C@@]2(O)/C=C\I
3. C[C@]12CC[C@@H]3c4ccc(O)cc4CC[C@H]3[C@@H]1CC[C@@]2(O)/C=C/Cl
Exercise: Order the items by recorded relative binding affinity (RBA); the first position goes to the largest value. Form field (ranking): labels in requested order.
Solution: 1, 3, 2
